Molecular target: SOS1:KRAS (G12C) interaction (Homo sapiens (Human))
Test: SOS1 KRas(G12C) FRET Assay
Conditions: 0.5 nM His10-SOS1 (res. 564-1049), 2.5 nM GST-KRAS G12C (res. 1-169), 2 hrs at RT
READOUT_TYPE: IC50 (µM)

Illustrative cases are given below, each with its answer.
compound="Cc1c([C@@H](C)NC(=O)c2cn(C3CCOCC3)c(=O)cc2N[C@@H]2CCN(C)C3(CC3)C2)cccc1C(F)(F)F (single isomer, unassigned) [Example 40]" value_units=µM reported_measurement=0.0118
compound="C[C@@H](NC(=O)c1cn([C@H]2CC23CCC3)c(=O)cc1N[C@H]1[C@@H]2CN(C)C[C@@H]21)c1cccc(C(F)F)c1F (single isomer, unassigned) [Example 117]" value_units=µM reported_measurement=0.0085
compound="C[C@@H](NC(=O)c1cn(C2(CF)CC2)c(=O)cc1N[C@H]1[C@@H]2CC[C@H]1CN(C)C2)c1cccc(C(F)F)c1F (single isomer, unassigned) [Example 260]" value_units=µM reported_measurement=0.0124

a. C[C@@H](NC(=O)c1cn([C@H]2CC23CC3)c(=O)cc1N[C@H]1[C@@H]2CN(C)C[C@@H]21)c1cccc(C(F)(F)F)c1F (single isomer, unassigned) [Example 219]
b. C[C@@H](NC(=O)c1cn(C2CC2)c(=O)cc1N[C@H]1[C@@H]2CC[C@H]1CN(C)C2)c1cccc(C(F)F)c1F (single isomer, unassigned) [Example 141]
Exercise: Field: lower recorded IC50 (choose a or b ) Which one? Tell me its label.
Solution: a
(a: 0.0269 µM, b: 0.0628 µM)

I. C[C@@H](NC(=O)c1cn(C2(CF)CC2)c(=O)cc1NC1CCN(C)CC1)c1cccc(C(F)F)c1F [Example 77]
II. C[C@@H](NC(=O)c1cn(C2(C(F)F)CC2)c(=O)cc1N[C@@H]1CCN(C)C2(CC2)C1)c1cccc(C(F)F)c1F (single isomer, unassigned) [Example 312]
Exercise: API: POST /compare with I and II ; response names the item with higher IC50. Which one? Tell me its label.
Solution: II

###

Target: SOS1:KRAS (G12C) interaction (Homo sapiens (Human), UniProt Q07889)
Sequence (Q07889 564-1049, stated change not applied): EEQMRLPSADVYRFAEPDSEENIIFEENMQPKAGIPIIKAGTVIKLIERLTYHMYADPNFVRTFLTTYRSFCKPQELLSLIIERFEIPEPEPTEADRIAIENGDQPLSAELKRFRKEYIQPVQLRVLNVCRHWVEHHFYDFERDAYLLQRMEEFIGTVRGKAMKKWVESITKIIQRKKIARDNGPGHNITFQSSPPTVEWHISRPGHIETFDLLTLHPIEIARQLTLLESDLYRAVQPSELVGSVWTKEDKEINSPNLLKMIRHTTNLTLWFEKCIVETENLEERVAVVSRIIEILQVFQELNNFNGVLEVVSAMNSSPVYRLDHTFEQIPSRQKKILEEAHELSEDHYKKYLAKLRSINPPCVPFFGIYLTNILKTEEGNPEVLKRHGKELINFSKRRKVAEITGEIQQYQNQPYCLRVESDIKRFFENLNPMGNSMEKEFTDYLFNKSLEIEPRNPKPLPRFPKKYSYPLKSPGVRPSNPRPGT
Experiment: SOS1 KRas(G12C) FRET Assay
Conditions: 0.5 nM His10-SOS1 (res. 564-1049), 2.5 nM GST-KRAS G12C (res. 1-169), 2 hrs at RT
pIC50: −log10 of the molar value.
READOUT_TYPE: pIC50

1. C[C@@H](NC(=O)c1cn([C@@H]2CCOC(C)(C)C2)c(=O)cc1N[C@H]1[C@@H]2CN(C)C[C@@H]21)c1cccc(C(F)F)c1F
2. C[C@@H](NC(=O)c1cn([C@@H]2CCC2(F)F)c(=O)cc1N[C@H]1[C@@H]2CC[C@H]1CN(C)C2)c1cccc(C(F)F)c1F
3. C[C@@H](NC(=O)c1cn(C2(C(F)F)CC2)c(=O)cc1N[C@H]1C[C@@H](N(C)C)C1)c1cccc(C(F)F)c1F
4. C[C@@H](NC(=O)c1cn([C@@]2(C(F)(F)F)CCOC2)c(=O)cc1NC1CCN(C)CC1)c1cccc(C(F)F)c1F
5. C[C@@H](NC(=O)c1cn([C@@]2(C)CCOC2)c(=O)cc1N[C@H]1[C@@H]2CN(C)C[C@@H]21)c1cccc(C(F)F)c1F (single isomer, unassigned)
Exercise: Order the items by recorded pIC50; the first position goes to the largest value. Kindly provide the labels arranged according to the requested ordering.
Solution: 1, 3, 5, 4, 2

a. C[C@@H](NC(=O)c1cn(C2(C(F)(F)F)CC2)c(=O)cc1NC1CCN(C)CC1)c1cccc(C(F)F)c1F
b. C[C@@H](NC(=O)c1cn(C2(C)CC(F)(F)C2)c(=O)cc1N[C@H]1[C@@H]2CN(C)C[C@@H]21)c1cccc(C(F)F)c1F
c. Cc1c([C@@H](C)NC(=O)c2cn(C3CCOCC3)c(=O)cc2N[C@@H]2CC[C@@H](O)C2)cccc1C(F)(F)F
d. Cc1c([C@@H](C)NC(=O)c2cn(C3CCOCC3)c(=O)cc2NC2CCN(C)CC2)cccc1C(F)(F)F
Exercise: Task field, ranking: reported pIC50, descending order. Kindly provide the labels arranged according to the requested ordering.
Solution: a, d, b, c

###

Target: SOS1:KRAS (G12C) interaction (Homo sapiens (Human), UniProt Q07889)
Test: SOS1 KRas(G12C) FRET Assay
Conditions: 0.5 nM His10-SOS1 (res. 564-1049), 2.5 nM GST-KRAS G12C (res. 1-169), 2 hrs at RT
READOUT_TYPE: IC50 (nM)

molecule="C[C@@H](NC(=O)c1cn([C@H]2CCOC(C)(C)C2)c(=O)cc1N[C@H]1[C@@H]2CN(C)C[C@@H]21)c1cccc(C(F)F)c1F [Example 310]" value_units=nM reported_measurement=37.2
molecule="C[C@@H](NC(=O)c1cn([C@H]2CCC2(F)F)c(=O)cc1NCC1(F)CN(C)C1)c1cccc(C(F)F)c1F [Example 146]" value_units=nM reported_measurement=5.4

a. Cc1c(C#N)cccc1[C@@H](C)NC(=O)c1cn([C@@H]2[C@@H](C)C2(F)F)c(=O)cc1N[C@H]1[C@@H]2CN(C)C[C@@H]21 (single isomer, unassigned) [Example 193]
b. COc1c(NC2CCN(C)CC2)c(C(=O)N[C@H](C)c2cccc(C(F)(F)F)c2C)cn(C2CCOCC2)c1=O [Example 18]
Exercise: Field: lower recorded IC50 (choose a or b ) Which one? Tell me its label.
Solution: b
(b: 77.8 nM, a: 151 nM)

###

Biological target: SOS1:KRAS (G12C) interaction (Homo sapiens (Human))
Experiment: SOS1 KRas(G12C) FRET Assay
Details: 0.5 nM His10-SOS1 (res. 564-1049), 2.5 nM GST-KRAS G12C (res. 1-169), 2 hrs at RT
READOUT_TYPE: IC50 (nM)

compound=C[C@@H](NC(=O)c1cn(C23CC(C(F)(F)F)(C2)C3)c(=O)cc1N[C@H]1[C@@H]2CN(C)C[C@@H]21)c1cccc(C(F)F)c1F value_units=nM reported_measurement=16.8

1. [2H]C([2H])([2H])N1C[C@@H]2[C@H](C1)[C@H]2Nc1cc(=O)n(C2(C(F)F)CC2)cc1C(=O)N[C@H](C)c1cccc(C(F)F)c1F
2. C[C@@H](NC(=O)c1cn([C@H]2CCC2(F)F)c(=O)cc1N[C@H]1[C@@H]2CN(C)C[C@@H]21)c1cccc(C(F)(F)F)c1 (single isomer, unassigned)
Exercise: API: POST /compare with 1 and 2 ; response names the item with higher IC50. Which one? Tell me its label.
Solution: 2
(2: 85.8 nM, 1: 28.2 nM)

###

Target: SOS1:KRAS (G12C) interaction (Homo sapiens (Human))
Assay: SOS1 KRas(G12C) FRET Assay
Settings: 0.5 nM His10-SOS1 (res. 564-1049), 2.5 nM GST-KRAS G12C (res. 1-169), 2 hrs at RT
Protocol: Inhibition of the SOS 1:KRAS interaction was measured using purified GST-tagged KRAS (res. 1-169, G12C, purified based on Hillig, et al., Proc Natl Acad Sci USA (2019); 116(7):2551-2560) and recombinant His10-SOS1 (res. 564-1049; purified based on Hillig, et al.). […] Plates were incubated at RT for 2 hrs before the FRET signal was measured using Envision at emission 665 nm and 615 nm. […]
pIC50: −log10 of the molar value.
READOUT_TYPE: pIC50

molecule="C[C@@H](NC(=O)c1cn(C2(C(F)F)CC2)c(=O)cc1N[C@H]1[C@@H]2C[C@H]1CN(C)C2)c1cccc(C(F)F)c1F (single isomer, unassigned)" reported_measurement=7.47
molecule=C[C@@H](NC(=O)c1cn(C23CC(F)(C2)C3)c(=O)cc1N[C@H]1CCN(C)C[C@H]1F)c1cccc(C(F)F)c1F reported_measurement=8.31
molecule="C[C@@H](NC(=O)c1cn(C2CCC2)c(=O)cc1N[C@H]1[C@@H]2CC[C@H]1CN(C)C2)c1cccc(C(F)F)c1F (single isomer, unassigned)" reported_measurement=7.97
molecule=C[C@@H](NC(=O)c1cn([C@@H]2CCC2(F)F)c(=O)cc1NCC1(F)CN(C)C1)c1cccc(C(F)F)c1F reported_measurement=7.35

1. C[C@@H](NC(=O)c1cn(C23CCC(CC2)C3)c(=O)cc1N[C@H]1[C@@H]2CN(C)C[C@@H]21)c1cccc(C(F)F)c1F
2. C[C@@H](NC(=O)c1cn(C2(C(F)F)CC2)c(=O)cc1NC[C@@H]1[C@H]2CN(C)C[C@@H]12)c1cccc(C(F)F)c1F
Exercise: API: POST /compare with 1 and 2 ; response names the item with higher pIC50. Which one? Tell me its label.
Solution: 1
(1: 7.99, 2: 7.45)

meta.source: patent US20230348424A1
